System name: HIV-1 integrase / human LEDGF/p75 complex
Run description: blockers of LEDGF/p75-dependent integrase activity – biochemical, TR-FRET, dose response (AID 1053172)
Condition description: TR-FRET integrase-LEDGF/p75 DNA integration
Activity calls are given as the source filed them. How the calls were made is not given here.
Labels: 1 = active, 0 = inactive

{"columns": ["Chemical structure", "Class"],
 "data": [
  ["O=C(O)c1cccc(-n2cccc2/C=C/[N+](=O)[O-])c1", 1],
  ["O=c1c(-c2c(O)cc(O)c3c(=O)cc(-c4ccc(O)cc4)oc23)c(-c2ccc(O)cc2)oc2cc(O)cc(O)c12", 1],
  ["O=C(N/N=C/c1cccnc1)c1cc(O)c(O)c(O)c1", 0]
]}

----------
System name: HIV-1 integrase / human LEDGF/p75 complex
Run description: blockers of LEDGF/p75-dependent integrase activity – biochemical, TR-FRET, dose response (AID 1053172)
Condition description: TR-FRET integrase-LEDGF/p75 DNA integration
Calls of active or inactive are those of the source. How the calls were made is not given here.
Outcome codes: active, inactive

{"columns": ["Molecule", "Class"],
 "data": [
  ["CCCCCn1c(NC(=O)c2ccco2)c(S(=O)(=O)c2ccc(C)cc2)c2nc3ccccc3nc21", "inactive"],
  ["CCN(CC)c1ccc(N=C2C=CC(=O)C=C2NC(C)=O)cc1", "inactive"],
  ["C=CCn1c(C)cc(C(=O)Cn2ncc(Cl)c(Cl)c2=O)c1C", "inactive"],
  ["CN(C)c1ccc2nc3ccc(=O)cc-3sc2c1", "inactive"],
  ["O=C1C=C(O)c2c(O)cc(O)c(O)c2C1=O", "active"],
  ["COc1ccc(/C=C2\\C(=O)NC(=O)c3ccccc32)cc1OC", "active"],
  ["Nc1c(C(=O)NCC2CCCO2)sc2nc3c(c(-c4ccco4)c12)CC/C3=C\\c1ccco1 (configuration not stated)", "active"],
  ["O=C1CC(=O)N(Cc2ccco2)C(=O)N1", "active"],
  ["NNc1cccc(C=Cc2ccccc2)cc1=O", "inactive"],
  ["Cc1ccc(NC2=CC(=O)C(=O)c3ccccc32)cc1", "active"],
  ["CCCNC1=C(C)C(=O)C2=C(C1=O)C(COC(N)=O)[C@]1(OC)C3NC3CN21 (some centres not stated)", "inactive"],
  ["COc1ccc(C(=O)CSc2nnc(-c3ccco3)c(-c3ccco3)n2)cc1", "active"],
  ["NS(=O)(=O)c1ccc(N/N=C/c2ccc(O)c(O)c2O)c([N+](=O)[O-])c1", "active"],
  ["O=C(NCc1ccco1)c1cc2ccc(O)cc2oc1=O", "inactive"],
  ["COCCN(CCOC)Cc1c(O)ccc2c1O/C(=C\\c1ccco1)C2=O", "inactive"],
  ["NC(=O)CC1Nc2cccc3cccc(c23)NC1=O (configuration not stated)", "inactive"],
  ["CC1(C)OC(=O)C(=Cc2ccc(-c3ccc(Cl)c(C(=O)O)c3)o2)C(=O)O1", "active"],
  ["O=C1c2ccccc2C(=O)N1/N=C/c1ccc(O)c(O)c1", "active"],
  ["COc1ccccc1OCC(=O)N/N=C/C=C/c1ccc([N+](=O)[O-])o1", "inactive"],
  ["O=C1C=C(Nc2ccccc2O)c2ccccc2C1=O", "active"],
  ["Cc1cc(=O)n2[nH]c(-c3ccsc3-n3c(C)ccc3C)cc2n1", "inactive"],
  ["COc1ccc(/C=N/NC(=O)c2cc(O)c(O)c(O)c2)cc1Cn1cc([N+](=O)[O-])cn1", "active"],
  ["Oc1ccc(C=Nc2cccc3ncccc23)c(O)c1", "inactive"],
  ["Oc1ccc(/C=N/N=C/c2ccc(O)c(O)c2)cc1O", "active"],
  ["CC1CCCC(C)N1/N=C/c1ccc(O)c(O)c1 (configuration not stated)", "active"],
  ["c1coc(-c2ccc3nncn3c2)c1", "active"],
  ["COCCN=c1scc(-c2ccco2)n1/N=C/c1ccc(O)c(O)c1O", "active"],
  ["Cc1nc2ccccc2c(=O)n1/N=C/c1ccc(O)c(O)c1O", "active"],
  ["S=C(Nc1ccc(N2CCOCC2)cc1)Nc1ccc2nc(-c3ccco3)c(-c3ccco3)nc2c1", "inactive"],
  ["CN(C(=O)COC(=O)c1cc(-c2ccco2)nc2ccccc12)C1CCS(=O)(=O)C1 (configuration not stated)", "active"],
  ["C[n+]1c2cc(N)ccc2cc2ccc(N)cc21", "active"],
  ["O=C1c2c(O)cc(O)cc2O[C@@]12c1c(cc(O)c3c1O[C@H](c1ccc(O)cc1)[C@@H](O)C3)O[C@@H]2c1ccc(O)cc1", "inactive"],
  ["COc1ccc(NS(=O)(=O)c2ccc3c(c2)[C@H]2C=CC[C@H]2[C@@H](c2ccc(C(=O)O)cc2)N3)cc1", "active"],
  ["C=CC1=C(C(=O)O)N2C(=O)[C@@H](NC(=O)/C(=N\\OCC(=O)O)c3csc(N)n3)[C@H]2SC1", "active"],
  ["N/C(=N\\N=C/c1ccc(-c2ccc(O)c(C(=O)O)c2)o1)N[N+](=O)[O-]", "active"],
  ["Cc1cccc(N=C2NC(=O)/C(=C/C=C/c3ccco3)S2)c1C", "active"],
  ["CC1OC(OCC2OC(Oc3c(-c4ccc(O)cc4)oc4cc(O)cc(O)c4c3=O)C(O)C(O)C2O)C(O)C(O)C1O (configuration not stated)", "active"]
]}

----------
Recorded pIC50, one value per entry.
System name: HIV-1 integrase / human LEDGF/p75 complex
Run description: blockers of LEDGF/p75-dependent integrase activity – biochemical, TR-FRET, dose response (AID 1053172)
Condition description: TR-FRET integrase-LEDGF/p75 DNA integration
pIC50: −log10 of the molar value.
Measurement type: pIC50

{"columns": ["Chemical structure", "System name", "Quantitative result"],
 "data": [
  ["Cc1sc2nc(SCC(=O)c3ccc(O)c(O)c3)n(C)c(=O)c2c1C", "HIV-1 integrase / human LEDGF/p75 complex", 5.44],
  ["C=C1c2cccc(O)c2C(O)=C2C(=O)[C@]3(O)C(O)=C(C(N)=O)C(=O)[C@@H](N(C)C)[C@@H]3[C@@H](O)[C@H]12", "HIV-1 integrase / human LEDGF/p75 complex", 5.56],
  ["C[C@@H]1O[C@@H](Oc2c(-c3cc(O)c(O)c(O)c3)oc3cc(O)cc(O)c3c2=O)[C@H](O)[C@H](O)[C@H]1O", "HIV-1 integrase / human LEDGF/p75 complex", 5.78],
  ["N#C/C(=C\\c1ccc(O)c(O)c1)C(=O)c1ccc(O)c(O)c1", "HIV-1 integrase / human LEDGF/p75 complex", 7.10]
]}

----------
System name: HIV-1 integrase / human LEDGF/p75 complex
Run description: blockers of LEDGF/p75-dependent integrase activity – biochemical, TR-FRET, dose response (AID 1053172)
Condition description: TR-FRET integrase-LEDGF/p75 DNA integration
Calls of active or inactive are those of the source. The rule behind the calls is not given here.
Outcomes: active, inactive

{"columns": ["Compound", "Class"],
 "data": [
  ["O=S(=O)(c1cc(O)ccc1O)c1cccc2c(S(=O)(=O)c3cc(O)ccc3O)cccc12", "inactive"],
  ["O=C(O)C(Cc1ccccc1)N1C(=O)/C(=C/C=C/c2ccco2)SC1=S (stereo unspecified)", "active"],
  ["O=C(CCN1C(=O)/C(=C/c2ccco2)SC1=S)Nc1ccc(O)cc1C(=O)O", "inactive"],
  ["COc1cc(C)cc(C(=O)O)c1C1=C(O)c2cccc(O)c2C(=O)C1=O", "active"],
  ["COc1cc(/C=C/C=C2/CC/C(=C/C=C/c3ccc(O)c(OC)c3)C2=O)ccc1O", "active"],
  ["C[C@@H]1O[C@@H](O[C@@H]2[C@@H](O)[C@H](OCCc3ccc(O)c(O)c3)O[C@H](CO)[C@H]2OC(=O)/C=C/c2ccc(O)c(O)c2)[C@H](O)[C@H](O)[C@H]1O", "active"],
  ["Cc1ccc(NC(=O)CN2C(=O)N/C(=C/c3ccco3)C2=O)cc1", "inactive"],
  ["C=CC(=O)N1C/C(=C/c2ccc(F)cc2)C(=O)/C(=C\\c2ccc(F)cc2)C1", "inactive"],
  ["CCN(CC)CCCNc1ccc2ncn3c4ccc(O)cc4c(=O)c1c23", "inactive"],
  ["O=C(O)c1ccc(-n2cccc2/C=C2/SC(=O)N(CC(=O)N3CCCC3)C2=O)cc1", "active"],
  ["Oc1cccc(CN2CCOCC2)c1O", "inactive"],
  ["O=c1c2cc(O)c(O)cc2oc2cc(O)c(C3OC(CO)C(O)C(O)C3O)c(O)c12 (stereo unspecified)", "active"],
  ["O=C(NN1C(=O)/C(=C/C=C/c2ccco2)SC1=S)c1ccncc1", "active"],
  ["Oc1cccc(/C=N/NC(=S)Nc2cccnc2)c1O", "inactive"],
  ["O=C(O)c1ccc(NC2=C/C(=N/S(=O)(=O)c3cccs3)c3ccccc3C2=O)cc1", "active"],
  ["NC(=O)c1ccc(N=Cc2c(O)n(Cc3ccco3)c(=O)[nH]c2=O)cc1", "inactive"]
]}
